Values compiled from patent US20070178531A1.

Exercise: state measured A450 for each of the binders provided.
- system-name: T1, Mouse Id2: Histidine (mouse, UniProt P41136 1-134, limits assumed)
- T1 construct: Fusion protein made in E. coli from vector pGW07; also called m-Id2: His; not shown: His tag
- T1 sequence (looked up): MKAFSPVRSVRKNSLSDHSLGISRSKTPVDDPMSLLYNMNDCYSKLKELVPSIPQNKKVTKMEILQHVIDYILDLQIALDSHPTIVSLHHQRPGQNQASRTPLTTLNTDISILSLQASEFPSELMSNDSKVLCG
- method-description: ELISA, Ab 0.005 µg/ml
- Experimental: The rabbit monoclonal anti-human Id3 (clone #3-3) and the rabbit monoclonal anti-mouse/human Id3 (clones #6-1, 16-1, 17-3, and 42-1) produced in Example 6 were tested reactivity against the following antigens: mouse Id1:His, human Id1:His, mouse Id2:His, human Id2:His, mouse Id3:His, human Id3:His, mouse Id4:His, human Id4:His and GST. 1. […]
One number for each entry, in A450.

Examples from the recorded data:
{"binder": "rabbit monoclonal anti-mouse/human Id3, clone #BCH-4/#16-1 (antibody, V domains shown, Rabbit IgG from a rabbit hybridoma; also called m/h Id3 MoAb 16-1) VH: QSVEESGGRLVTPGTPLTLTCTASGFSLSSYYIHWVRQAPGKALEWIGYISDGGTTYYASWAKGRFTISKTSSTTVDLKMTSLTTEDTATYFCARQGFNIWGPGTLVTVSL VL: AVLTQTPSPVSAAVGGTVTISCQSSQSVYNNNWLSWFQQKSGQPPKLLIYETSKLESGVPSRFKGSGSGTQFTLTIIDVQCDDAATYYCLGGYWTTSDNNIFGGGTEVVVK", "measurement-unit": "A450", "A450": 0.045}
{"binder": "rabbit monoclonal anti-mouse/human Id3, clone #BCH-4/#42-1 (antibody, V domains shown, Rabbit IgG from a rabbit hybridoma; also called m/h Id3 MoAb 42-1) VH: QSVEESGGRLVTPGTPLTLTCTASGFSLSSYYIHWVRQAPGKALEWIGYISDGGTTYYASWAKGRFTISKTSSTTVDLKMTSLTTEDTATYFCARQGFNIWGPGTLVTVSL VL: AVLTQTPSPVSAAVGGTVTISCQSSQSVYNNNWLSWFQQKSGQPPKLLIYETSKLESGVPSRFKGSGSGTQFTLTIIDVQCDDAATYYCLGGYWSTSDNNIFGGGTEVVVK", "measurement-unit": "A450", "A450": 0.05}
{"binder": "rabbit monoclonal anti-mouse/human Id3, clone #BCH-4/#17-3 (antibody, V domains shown, Rabbit IgG from a rabbit hybridoma; also called m/h Id3 MoAb 17-3; BCH-3/#17-3) VH: QSVEESGGRLVTPGTPLTLTCTASGFSLSNVYIHWVRQAPGKGLEWIGYISDGDTARYATWAKGRFTISKTSSTTVNLKMTSLTTEDTATYFCARQGFNIWGPGTLVTVSL VL: AVLTQTPSPVSAAVGGTVSISCQSSQSVWNNNWLSWFQQKPGQPPKLLIYETSKLESGVPSRFKGSGSGTQFTLTISDVQCDDAATYYCLGGYWTTSDNNVFGGGTEVVVK", "measurement-unit": "A450", "A450": 0.052}

Please find the next binder below.
Ask | Quick one: give measured A450 for rabbit monoclonal anti-mouse/human Id3, clone #BCH-4/#6-1 (antibody, V domains shown, Rabbit IgG from a rabbit hybridoma; also called m/h Id3 MoAb 6-1) VH: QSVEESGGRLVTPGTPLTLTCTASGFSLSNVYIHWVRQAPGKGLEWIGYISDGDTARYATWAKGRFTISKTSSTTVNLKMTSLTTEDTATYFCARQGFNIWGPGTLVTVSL VL: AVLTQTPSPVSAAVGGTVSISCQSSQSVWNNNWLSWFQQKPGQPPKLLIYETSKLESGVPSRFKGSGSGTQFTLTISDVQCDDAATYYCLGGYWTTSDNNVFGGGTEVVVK
Reply | 0.046
